Biological target: human dopamine D2L receptors (long isoform) (Homo sapiens)
Sequence (P14416 whole entry, canonical isoform): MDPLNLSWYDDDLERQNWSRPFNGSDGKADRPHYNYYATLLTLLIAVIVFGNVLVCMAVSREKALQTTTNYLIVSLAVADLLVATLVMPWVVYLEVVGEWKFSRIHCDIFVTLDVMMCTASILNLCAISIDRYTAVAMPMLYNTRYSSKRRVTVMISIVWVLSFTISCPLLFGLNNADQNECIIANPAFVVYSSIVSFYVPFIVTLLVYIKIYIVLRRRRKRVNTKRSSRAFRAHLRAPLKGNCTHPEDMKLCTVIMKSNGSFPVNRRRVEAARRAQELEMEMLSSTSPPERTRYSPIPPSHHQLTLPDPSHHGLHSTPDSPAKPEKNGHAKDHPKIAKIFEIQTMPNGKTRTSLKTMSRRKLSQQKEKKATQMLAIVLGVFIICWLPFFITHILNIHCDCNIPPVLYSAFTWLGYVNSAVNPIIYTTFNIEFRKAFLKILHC
Test: Dopamine D2L receptor binding, displacement of [125I] iodospiperone
Details: membranes of HEK-293 cells stably expressing human D2L; 0.01 nM [125I] iodospiperone; 25° C., 60 minutes; read-out: Ki(D2)*
Here, each record is paired with measured Ki data.
property: Ki (µM)

structure smiles string | property | unit | quantitative result
CCCN1CC[C@@H](c2ccc(NS(=O)(=O)c3ccc(OC)cc3)cc2)C1 | Ki | µM | 0.131
CCCN1CC[C@@H](c2ccc(NS(=O)(=O)c3ccc(SC(F)(F)F)cc3)cc2)C1 | Ki | µM | 0.142
CCCN1CC[C@@H](c2ccc(NS(=O)(=O)c3ccc(Br)cc3F)cc2)C1 | Ki | µM | 0.126
